Tested on: K562
Assay: Antiproliferative activity against human K562 cells after 72 hrs by MTT assay
Type: functional, cell-based
Details: K562, 72 h
pIC50: −log10 of the molar value.
endpoint-name: pIC50

A. COC(=O)c1ccc2c(c1)NC(=O)CN2C(=O)Cc1cc(OC)c(OC)c(OC)c1
B. COC(=O)c1ccc2c(c1)NC(=O)CN2C(=O)c1ccc(OC)cc1
C. COC(=O)c1ccc2c(c1)NC(=O)CN2C(=O)c1ccc(OC)c(OC)c1
Task: // ascending sort on recorded pIC50 API: response body holds the labels in the requested order.
Output: A, B, C

====

Test system: SMMC-7721
Experiment: Antiproliferative activity against human SMMC7721 cells after 72 hrs by MTT assay
Type: functional, cell-based
Conditions: SMMC-7721, 72 h
pIC50: −log10 of the molar value.
endpoint-name: pIC50

Example entries and their recorded answers appear below.
INSERT INTO assay_data (molecular_string, experimental_system, recorded_measurement) VALUES
  ('COC(=O)c1ccc2c(c1)NC(=O)CN2Cc1cc(OC)c(OC)c(OC)c1', 'SMMC-7721', 5.57),
  ('COc1ccc(C(=O)N2CC(=O)Nc3cc(C(=O)N4CCOCC4)ccc32)cc1OC', 'SMMC-7721', 4.46),
  ('COc1ccc(/C=C\c2cc(OC)c(OC)c(OC)c2)cc1O', 'SMMC-7721', 8.42);

a. COc1ccc(C(=O)N2CC(=O)Nc3cc(C(=O)Nc4ccccc4)ccc32)cc1OC
b. COC(=O)c1ccc2c(c1)NC(=O)CN2C(=O)Cc1cc(OC)c(OC)c(OC)c1
Task: Lab note: check whether a or b has the lower measured pIC50. Output the label that corresponds to your choice.
Output: a
(a: 4.46, b: 5.04)

a. COC(=O)c1ccc2c(c1)NC(=O)CN2C(=O)c1ccc(OC)c(OC)c1
b. CCCCNC(=O)c1ccc2c(c1)NC(=O)CN2C(=O)c1cc(OC)c(OC)c(OC)c1
c. COC(=O)c1ccc2c(c1)NC(=O)CN2Cc1ccc(OC)cc1
Task: Order the entries by their reported pIC50, beginning at the minimum. Labels, requested order.
Output: b, c, a

1. COc1cc(C(=O)N2CC(=O)Nc3cc(C(=O)Nc4ccccc4)ccc32)cc(OC)c1OC
2. COc1cccc2c1C(=O)c1c(O)c3c(c(O)c1C2=O)C[C@@](O)(C(=O)CO)C[C@@H]3O[C@H]1C[C@H](N)[C@H](O)[C@H](C)O1
Task: Hi! Which is lower in terms of pIC50, the first one 1 or the second one 2 ? Reply briefly: the label of your chosen item.
Output: 1

A. COc1cc(C(=O)N2CC(=O)Nc3cc(C(=O)NC4CCCCC4)ccc32)cc(OC)c1OC
B. COC(=O)c1ccc2c(c1)NC(=O)CN2C(=O)c1ccc(F)cc1
C. COC(=O)c1ccc2c(c1)NC(=O)CN2C(=O)c1cc(OC)c(OC)c(OC)c1
Task: Order the records, beginning with the lowest pIC50 and ending with the highest. List each label, following the requested order.
Output: A, B, C
(A: 4.39, B: 5.11, C: 7.15)
